Exercise: state measured IC50 for each of the molecules provided.
experimental-target: purified recombinant human Aggrecanase-1 (rAgg1) (Homo sapiens, UniProt O75173)
Sequence (O75173 213-837): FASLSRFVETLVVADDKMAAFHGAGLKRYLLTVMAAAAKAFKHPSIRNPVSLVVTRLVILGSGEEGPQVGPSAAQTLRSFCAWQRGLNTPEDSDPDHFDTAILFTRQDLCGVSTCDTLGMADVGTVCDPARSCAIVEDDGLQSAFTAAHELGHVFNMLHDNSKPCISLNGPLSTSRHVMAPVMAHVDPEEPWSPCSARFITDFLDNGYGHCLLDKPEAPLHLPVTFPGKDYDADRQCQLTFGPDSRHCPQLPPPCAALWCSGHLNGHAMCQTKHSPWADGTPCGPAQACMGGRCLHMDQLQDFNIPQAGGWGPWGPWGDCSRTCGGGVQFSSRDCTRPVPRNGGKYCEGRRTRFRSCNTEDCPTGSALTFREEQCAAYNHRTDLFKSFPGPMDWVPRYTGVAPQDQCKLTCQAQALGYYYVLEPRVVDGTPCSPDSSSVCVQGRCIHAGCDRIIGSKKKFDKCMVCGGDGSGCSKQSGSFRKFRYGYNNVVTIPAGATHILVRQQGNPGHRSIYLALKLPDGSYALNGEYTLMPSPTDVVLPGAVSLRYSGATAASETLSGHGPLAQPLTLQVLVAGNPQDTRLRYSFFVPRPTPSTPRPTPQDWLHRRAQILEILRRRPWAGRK
test-name: In vitro fluorescence screen for Aggrecanase-1 inhibitors
Format: biochemical
condition-parameters: Table 1; read-out: Agg1 IC50
Provide the reading as a plain figure in nM.

Given O=C(O)CC[C@H](NC(=O)c1ccc(-c2ccccc2)cc1)C(=O)NC1CCCC1 , state its recorded IC50.
80

Given O=C(O)CC[C@H](NC(=O)c1ccc(-c2ccccc2)cc1)C(=O)NCCc1ccc(Cl)cc1 , state its recorded IC50.
200

Given O=C(O)CC[C@H](NC(=O)c1ccc(-c2ccccc2)cc1)C(=O)NCc1cc(F)cc(F)c1 , state its recorded IC50.
370

Given O=C(O)CC[C@H](NC(=O)c1ccc(-c2ccco2)cc1)C(=O)NCc1ccccc1 [Example 12A] , state its recorded IC50.
700

Given CCN(CC)C(=O)[C@H](CCC(=O)O)NC(=O)c1ccc(-c2ccccc2)cc1 , state its recorded IC50.
7900

Given CCCCCCNC(=O)[C@H](CCC(=O)O)NC(=O)c1ccc2c(c1)Cc1ccccc1-2 , state its recorded IC50.
52

Given COc1cccc(CNC(=O)[C@H](CCC(=O)O)NC(=O)c2ccc(-c3ccccc3)nc2)c1 [Example 22B] , state its recorded IC50.
200

---

experimental-target: purified recombinant human Aggrecanase-2 (Ag2t-Phe628-Strep) (Homo sapiens, UniProt Q9UNA0)
Construct: the form used is denoted as Ag2t-Phe628-Strep (MW=41,737)
Sequence (Q9UNA0 262-628): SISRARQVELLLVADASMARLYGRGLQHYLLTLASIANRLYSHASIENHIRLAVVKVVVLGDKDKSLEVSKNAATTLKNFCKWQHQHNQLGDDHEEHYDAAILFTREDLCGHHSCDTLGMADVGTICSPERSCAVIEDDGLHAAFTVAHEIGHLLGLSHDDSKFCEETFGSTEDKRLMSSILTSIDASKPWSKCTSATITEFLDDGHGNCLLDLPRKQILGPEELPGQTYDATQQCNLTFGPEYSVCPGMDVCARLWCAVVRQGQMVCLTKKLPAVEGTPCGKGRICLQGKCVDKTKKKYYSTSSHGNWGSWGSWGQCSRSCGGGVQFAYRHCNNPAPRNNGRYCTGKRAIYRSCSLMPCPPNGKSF
test-name: In vitro fluorescence screen for Aggrecanase-2 inhibitors
Type: biochemical
condition-parameters: Table 2; read-out: Agg 2 IC50
Exercise: state measured pIC50 for each of the compounds provided.
Would you please state pIC50, meaning minus log10 of the concentration in mol/L, as a bare number?

Given CC(C)(Cc1ccccc1)NC(=O)[C@H](CCC(=O)O)NC(=O)c1ccc(-c2ccc3c(c2)OCO3)cc1 [Example 17P] , state its recorded pIC50.
7.24

Given Cc1cccc(CNC(=O)[C@H](CCC(=O)O)NC(=O)c2ccc3c(c2)C(=O)c2ccccc2-3)c1 , state its recorded pIC50.
5.96

Given Cc1cccc(-c2ccc(C(=O)N[C@@H](CCC(=O)O)C(=O)NC(C)(C)Cc3ccc(F)cc3)cc2)c1 [Example 17Y] , state its recorded pIC50.
6.81

Given Cc1ccc(-c2ccc(C(=O)N[C@@H](CCC(=O)O)C(=O)NC(C)(C)Cc3ccccc3)cc2)cc1F [Example 17L] , state its recorded pIC50.
6.65

Given C[C@@H](CNC(=O)[C@H](CCC(=O)O)NC(=O)c1ccc(-c2ccccc2)cc1)c1ccccc1 , state its recorded pIC50.
5.78
